Target: FAAH (Homo sapiens, UniProt O00519)
Construct: Reactions were initiated by adding 12.5 μg of brain microsome; tissue ABS, Inc; host or cells: human brain cerebral cortex, membrane/microsome fraction pooled from 3 donors
Sequence (O00519 whole entry): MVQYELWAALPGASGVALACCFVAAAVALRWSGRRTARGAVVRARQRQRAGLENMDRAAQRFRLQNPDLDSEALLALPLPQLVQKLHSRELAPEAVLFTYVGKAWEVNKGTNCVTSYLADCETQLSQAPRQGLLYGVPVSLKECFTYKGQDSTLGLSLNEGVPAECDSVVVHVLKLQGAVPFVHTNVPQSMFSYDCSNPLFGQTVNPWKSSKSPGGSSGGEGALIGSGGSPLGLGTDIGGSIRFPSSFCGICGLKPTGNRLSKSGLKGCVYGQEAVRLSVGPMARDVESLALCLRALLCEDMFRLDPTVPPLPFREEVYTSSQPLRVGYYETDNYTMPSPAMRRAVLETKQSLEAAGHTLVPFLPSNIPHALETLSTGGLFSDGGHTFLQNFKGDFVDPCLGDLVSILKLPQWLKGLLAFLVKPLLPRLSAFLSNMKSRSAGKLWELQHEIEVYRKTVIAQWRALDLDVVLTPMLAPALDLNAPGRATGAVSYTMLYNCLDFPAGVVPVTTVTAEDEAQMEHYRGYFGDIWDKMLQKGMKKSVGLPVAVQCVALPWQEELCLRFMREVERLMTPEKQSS
Assay: FAAH inhibition, human brain membrane homogenate assay
Format: biochemical
Conditions: human brain homogenate; average activity; read-out: Human brain Extract FAAH IC50
pIC50: −log10 of the molar value.
observedProperty: pIC50

Task: I am curious: what pIC50 value has been reported for COc1ccc2c(c1)c(C(=O)C(=O)Nc1ccnc(OC)c1)c(C)n2Cc1ncc(F)cc1F ?
Result: > 7.00

Task: Again, but for COc1cc(NC(=O)C(=O)c2c(C)n(Cc3ncc(Cl)cc3F)c3ccc(C)cc23)ccn1
Result: > 7.00

Task: Again, but for COc1ccc2c(c1)c(C(=O)C(=O)Nc1ccnc(OC)c1)c(C)n2Cc1cccnc1
Result: 6.00 to 7.00

Task: Again, but for Cc1c(C(=O)C(=O)Nc2cccc(Cl)c2)c2cc(O)ccc2n1Cc1ccc(Cl)cc1
Result: > 7.00

Task: Again, but for COc1cc(NC(=O)C(=O)c2c(C)n(Cc3ccc(Cl)cc3)c3ccc(N(C)C)cc23)ccn1
Result: > 7.00

Next:
Task: I am curious: what pIC50 value has been reported for COc1cc(NC(=O)C(=O)c2c(C)n(Cc3ccc(Cl)cc3)c3ccc(OC)c(OC)c23)ccn1 ?
Result: 6.00 to 7.00

Task: Again, but for COc1ccc2c(c1)c(C(=O)C(=O)Nc1ccnc(OC)c1)c(C)n2Cc1ccc(Cl)cn1
Result: > 7.00
